target of assay: Nav1.5 (Homo sapiens)
Sequence (Q14524 whole entry): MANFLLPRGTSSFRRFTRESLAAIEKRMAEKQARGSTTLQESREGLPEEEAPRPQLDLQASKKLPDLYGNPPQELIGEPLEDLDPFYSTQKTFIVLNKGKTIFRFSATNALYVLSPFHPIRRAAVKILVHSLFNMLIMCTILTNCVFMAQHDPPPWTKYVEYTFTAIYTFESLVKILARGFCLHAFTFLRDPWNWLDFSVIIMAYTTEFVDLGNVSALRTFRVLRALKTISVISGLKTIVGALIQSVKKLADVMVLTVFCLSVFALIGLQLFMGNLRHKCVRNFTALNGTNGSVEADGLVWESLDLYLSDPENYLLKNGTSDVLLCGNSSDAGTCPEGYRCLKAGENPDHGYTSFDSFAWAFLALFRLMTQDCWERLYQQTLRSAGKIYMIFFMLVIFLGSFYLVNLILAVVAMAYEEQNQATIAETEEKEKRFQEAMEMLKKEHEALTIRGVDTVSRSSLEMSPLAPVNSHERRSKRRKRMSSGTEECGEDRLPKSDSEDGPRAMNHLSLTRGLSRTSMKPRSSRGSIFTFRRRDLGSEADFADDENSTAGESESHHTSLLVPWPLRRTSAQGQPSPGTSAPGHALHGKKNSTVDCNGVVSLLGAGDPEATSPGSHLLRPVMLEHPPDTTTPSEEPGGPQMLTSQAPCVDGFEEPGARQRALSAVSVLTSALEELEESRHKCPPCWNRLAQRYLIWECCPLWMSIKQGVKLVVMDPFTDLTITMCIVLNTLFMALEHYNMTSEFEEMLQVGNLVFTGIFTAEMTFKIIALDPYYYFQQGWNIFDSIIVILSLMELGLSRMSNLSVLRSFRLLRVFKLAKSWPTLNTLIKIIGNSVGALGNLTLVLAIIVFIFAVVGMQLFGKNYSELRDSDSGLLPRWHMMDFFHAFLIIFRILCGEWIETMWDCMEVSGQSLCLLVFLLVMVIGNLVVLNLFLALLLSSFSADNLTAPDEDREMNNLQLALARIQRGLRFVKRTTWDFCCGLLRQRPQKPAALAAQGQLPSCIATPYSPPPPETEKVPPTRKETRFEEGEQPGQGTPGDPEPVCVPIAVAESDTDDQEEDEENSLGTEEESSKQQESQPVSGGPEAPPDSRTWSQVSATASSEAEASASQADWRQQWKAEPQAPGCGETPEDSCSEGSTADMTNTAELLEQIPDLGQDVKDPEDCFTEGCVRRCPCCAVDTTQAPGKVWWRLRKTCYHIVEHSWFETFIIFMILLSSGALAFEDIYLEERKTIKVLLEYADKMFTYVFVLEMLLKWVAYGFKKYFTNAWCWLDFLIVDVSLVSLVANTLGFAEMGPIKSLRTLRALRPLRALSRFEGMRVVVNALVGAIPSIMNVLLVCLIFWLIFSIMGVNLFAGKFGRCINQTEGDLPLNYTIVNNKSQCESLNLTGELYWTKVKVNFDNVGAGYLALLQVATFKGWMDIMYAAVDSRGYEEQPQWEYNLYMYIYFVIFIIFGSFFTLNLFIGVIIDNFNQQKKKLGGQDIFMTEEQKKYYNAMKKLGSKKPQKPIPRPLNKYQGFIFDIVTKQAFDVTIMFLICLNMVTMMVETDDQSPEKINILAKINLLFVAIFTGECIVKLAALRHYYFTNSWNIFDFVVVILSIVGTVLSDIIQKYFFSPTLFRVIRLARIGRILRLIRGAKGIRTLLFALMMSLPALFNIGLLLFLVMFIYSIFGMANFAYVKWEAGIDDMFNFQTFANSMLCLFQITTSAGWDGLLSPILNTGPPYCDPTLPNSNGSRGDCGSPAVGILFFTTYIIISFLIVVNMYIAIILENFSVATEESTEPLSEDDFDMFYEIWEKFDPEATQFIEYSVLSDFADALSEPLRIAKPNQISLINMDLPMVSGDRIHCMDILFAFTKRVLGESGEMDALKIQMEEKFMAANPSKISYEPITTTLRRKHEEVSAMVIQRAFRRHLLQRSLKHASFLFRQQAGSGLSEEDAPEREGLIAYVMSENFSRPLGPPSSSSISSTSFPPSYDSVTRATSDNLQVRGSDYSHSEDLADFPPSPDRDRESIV
experimental protocol: Inhibition of human Nav1.5 expressed in CHO cells at 10 uM incubated for 3 to 5 mins by QPatch clamp assay
Format: cell-based
condition parameters: CHO cells expressing human Nav1.5
measured metric: inhibition at 10 µM

Quick check: inhibition at 10 µM of `C[C@H]1CN(C2COC2)CCN1c1ccc(Nc2cc(-c3ccnc(N4CCn5c(cc6c5CC(C)(C)C6)C4=O)c3CO)cn(C)c2=O)nc1` ?
1.9%

---

target of assay: LTK (Homo sapiens)
Sequence (P29376 whole entry): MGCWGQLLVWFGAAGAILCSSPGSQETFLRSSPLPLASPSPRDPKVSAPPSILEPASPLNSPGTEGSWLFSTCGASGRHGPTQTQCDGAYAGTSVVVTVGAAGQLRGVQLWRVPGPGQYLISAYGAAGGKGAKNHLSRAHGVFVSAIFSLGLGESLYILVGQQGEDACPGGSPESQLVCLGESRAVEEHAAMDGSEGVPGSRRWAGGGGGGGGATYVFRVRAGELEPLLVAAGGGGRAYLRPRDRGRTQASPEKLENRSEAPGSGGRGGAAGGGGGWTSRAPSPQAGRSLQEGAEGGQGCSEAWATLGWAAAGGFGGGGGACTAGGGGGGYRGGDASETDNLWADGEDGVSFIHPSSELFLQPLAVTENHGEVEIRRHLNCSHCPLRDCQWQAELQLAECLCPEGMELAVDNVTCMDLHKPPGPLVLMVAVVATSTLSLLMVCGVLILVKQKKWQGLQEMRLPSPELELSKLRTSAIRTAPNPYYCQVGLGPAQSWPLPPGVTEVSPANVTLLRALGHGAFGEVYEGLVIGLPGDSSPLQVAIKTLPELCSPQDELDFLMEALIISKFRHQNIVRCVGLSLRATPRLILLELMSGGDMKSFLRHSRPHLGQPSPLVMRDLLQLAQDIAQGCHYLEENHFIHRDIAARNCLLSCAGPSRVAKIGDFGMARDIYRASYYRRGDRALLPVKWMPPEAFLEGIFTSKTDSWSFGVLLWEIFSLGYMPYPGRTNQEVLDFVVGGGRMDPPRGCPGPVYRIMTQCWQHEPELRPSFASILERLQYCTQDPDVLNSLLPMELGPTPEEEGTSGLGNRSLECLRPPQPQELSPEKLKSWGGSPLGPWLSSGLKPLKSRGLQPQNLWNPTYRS
experimental protocol: Inhibition of recombinant human cytoplasmic GST-tagged LTK expressed in baculovirus at 1 uM by Z'-LYTE assay
Please go through the items and note down their inhibition at 1 µM.
One number for each entry, in %.

Past entries and their recorded results:
C=CC(=O)N1CCC[C@@H](n2nc(-c3ccc(Oc4ccccc4)cc3)c3c(N)ncnc32)C1 :: 81
C=CC(=O)N1CCC(CNc2ncnc(N)c2-c2ccc(Oc3ccccc3)cc2)CC1 :: -2

Look up inhibition at 1 µM for the entries below, preserving their order.
1. C[C@H]1CN(C2COC2)CCN1c1ccc(Nc2cc(-c3ccnc(N4CCn5c(cc6c5CC(C)(C)C6)C4=O)c3CO)cn(C)c2=O)nc1
2. C=CC(=O)Nc1cccc(Nc2nc(Nc3ccc(OCCOC)cc3)ncc2F)c1

[-1, 19]

Recorded values, source ChEMBL document CHEMBL4020831.
